All values here come from the supplement of paper PMC10126150.

System: ATP;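 note: ATP exposure 15 min at 22 °C before imaging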
Experiment: switch fluorescence ratio, 500 uM ATP over buffer (Cy3 cluster intensity, sum of 5 cycles each) (fold (ratio)); higher = stronger signal-on switching upon ATP binding; sequences stand for … in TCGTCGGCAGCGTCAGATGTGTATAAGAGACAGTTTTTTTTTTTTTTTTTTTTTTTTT…TC
Details: aptamer strand: ATP DNA aptamer (quencher-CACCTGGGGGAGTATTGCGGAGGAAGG + anchor), 100 nM annealed; ATP concentration: 500 uM
OBSERVATION_TYPE: switch fluorescence ratio
Numbers only.

Guide cases for switch fluorescence ratio, answers given:
ATCGACGGGG = 1.01
TAAATGGGTT = 1

Please supply switch fluorescence ratio for each of the following items, keeping them in order.
1. GGATTGATGT
2. TTCACTTTTT
3. ACGGGTGGGA
4. TTATGGGCAG
5. TGCGAAGGAG
6. TAGGAGTGCT
7. GTGGGGCCGA
8. GAGGGAGGGT

**A:**
[0.972, 1, 1, 1.01, 0.979, 0.99, 1.01, 1.02]

Report switch fluorescence ratio for each item below.
1. AGGGGGTATT
2. TGTTTTATG
3. AATATAAAGG

**A:**
1.01
1.01
1

Respectfully, I request switch fluorescence ratio for each entry included below.
1. TGAATCCATT
2. GCTTCTTGTT
3. ACTTGTAGTA
4. TCTAATGGGC
5. AGTTAGATCT
6. CTGGCTAGAG
7. ATAATTTTAG
8. TTGATTGATA

**A:**
1. 1
2. 1
3. 1.01
4. 0.993
5. 1
6. 0.973
7. 0.999
8. 1

Below are 2 sequences. Give each one its switch fluorescence ratio.
1. AGGTTTAATT
2. CAGCGGGGGA

**A:**
[1.01, 1.01]

Below is a list of sequences. For each, state its recorded switch fluorescence ratio.
1. ATGGGAGAAA
2. AGAAATTGGT
3. TCATAGTACG
4. AGGATCGATG

**A:**
1: 1.01; 2: 1.02; 3: 1.02; 4: 1
